Cited source for all entries: ChEMBL document CHEMBL3433997

# experimental_system: Hexose transporter 1 (Plasmodium falciparum) (UniProt O97467)
# method_notes: ST_JUDE_LEISH: Cytotoxicity at 2uM final concentration against transgenic Leishmania Mexicana promastigotes LmPfHT that are glucose transport deficient and complemented with the Plasmodium falciparum hexose transporter. Activity is measured by DNA content using SYBR green in vitro
# Assay type: functional
inhibition listing for selected compounds.

{"columns": ["smiles_representation", "measure_unit", "inhibition"],
 "data": [
  ["Cc1cc(-c2cccc(CNCCc3ccc(Cl)cc3)c2)cnc1N", "%", 6.59],
  ["CN1CCN(c2cc(NC(=O)Nc3cccc(Cl)c3Cl)ccc2Cl)CC1", "%", -2.86],
  ["COc1ccc2nc3cc(Cl)ccc3c(Nc3ccc(C(=O)O)cc3)c2c1", "%", -1.31],
  ["CO[C@H](C)[C@H](NC(=O)[C@H](CC(C)C)[C@H](CCC(F)(F)F)N(O)C=O)C(=O)Nc1nccs1", "%", 4.95],
  ["CN(C)Cc1c(O)ccc2[nH]c(-c3cccc(F)c3)nc12", "%", 2.53],
  ["Cc1ccc(Cc2c[nH]c(NCCSCc3ccc(CN4CCOCC4)o3)nc2=O)cn1", "%", 0.59],
  ["CCN(CC)/C(=N/C(=N)Nc1ccc(Cl)c(Cl)c1)NCCCCCCN/C(=N\\C(=N)Nc1ccc(Cl)c(Cl)c1)N(CC)CC", "%", -1.65],
  ["O=C(Nc1ccc(-c2ccc(-c3nc4cc(C(F)(F)F)ccc4[nH]3)s2)cc1)c1c[nH]cn1", "%", 7.24],
  ["COc1ccc(-c2ccc3c(-c4ccc(F)cc4)cnc(N)c3c2)cn1", "%", -1.33]
]}

---

inhibition listing for selected compounds.
# experimental_system: Hexose transporter 1 (Plasmodium falciparum)
# method_notes: ST_JUDE_LEISH: Cytotoxicity at 2uM final concentration against transgenic Leishmania Mexicana promastigotes LmPfHT that are glucose transport deficient and complemented with the Plasmodium falciparum hexose transporter. Activity is measured by DNA content using SYBR green in vitro
# Assay type: functional
parameter: inhibition (%)

{"columns": ["compound", "parameter", "measure_unit", "value_measured"],
 "data": [
  ["CC(C)NCc1ccc(-c2cccc(NC(=O)c3cccc(Cl)c3)c2)cc1", "inhibition", "%", 12.9],
  ["CC1CN(c2cc(=O)n(Cc3cccc(NC(=O)Nc4ccc(-c5ccccc5)cc4)c3)cn2)CC(C)N1 (stereo not given)", "inhibition", "%", 2.06],
  ["FC(F)(F)c1ccc(CSc2ccc3nnc(-c4ccccn4)n3n2)cc1", "inhibition", "%", 9.71],
  ["Cc1cccc2nc(-c3ccc(-c4cccc(CN5CCCCC5)c4)s3)[nH]c12", "inhibition", "%", 5.12],
  ["N=C1NC(c2ccccc2)(c2ccccc2)C(=O)N1CC=Cc1ccccc1", "inhibition", "%", 8.66],
  ["FC(F)(F)c1ccc2[nH]c(-c3cccc(-c4ccc(CNCCN5CCNCC5)cc4)c3)nc2c1", "inhibition", "%", 2.47],
  ["O=C(Nc1cccc(CN2CCCN(Cc3cccc(O)c3)CC2)c1)c1ccc2ccccc2c1", "inhibition", "%", 1.53],
  ["Cc1cccc(CNc2nc(C)cc(N[C@@H](Cc3ccccc3)C(=O)NCCOc3ccccc3)n2)c1", "inhibition", "%", 15.8],
  ["CCCCCN1CCCCC(NS(=O)(=O)c2ccc(C(=O)Nc3ccc(C(F)(F)F)cc3)cc2)C1 (stereo not given)", "inhibition", "%", 2.98],
  ["O=C(NCCN1CCCC1)c1cc(-c2ccc(Cl)c(O)c2)c(-c2ccncc2)o1", "inhibition", "%", 4.79],
  ["CCN(CC)c1ccc2nc(N)nc(N)c2c1Cl", "inhibition", "%", 6.11],
  ["C=C(F)c1sc(CNCCCNc2nc3ccccc3[nH]2)c(C)c1Br", "inhibition", "%", 73.8],
  ["C#CCOc1ccc2ccccc2c1CNCCCCCCNCc1c(OCC#C)ccc2ccccc12", "inhibition", "%", 2.21],
  ["C[C@@H](N/C(=N\\c1ccc(-c2ccccc2)cc1)Nc1ccc(C#N)cc1O)c1ccc(Br)cc1", "inhibition", "%", 2.45],
  ["Cc1c(-c2ccc3c(c2)C(NCCCN2CCCCC2)CC3)cnc(N)c1C (stereo not given)", "inhibition", "%", 0.89],
  ["CCNc1cc(C)nc(Nc2ccc(NC(=O)c3ccccc3Cl)cc2)n1", "inhibition", "%", 8.33],
  ["Cc1nc(N)nc(N)c1-c1ccc2ccccc2c1", "inhibition", "%", -1.02],
  ["O=C(N[C@H]1CCN(Cc2ccc(OCCN3CCNCC3)c(Br)c2)C1)c1ccc(Cl)c(Cl)c1", "inhibition", "%", 0.16],
  ["COc1cc2nc(N3CCC(CNC(=O)c4ccc(-c5ccc(C(F)(F)F)cc5)cc4)CC3)nc(N)c2cc1OC", "inhibition", "%", 2.34],
  ["CCN(CC)CCCSc1ccc(-c2ccc(SCCCN(CC)CC)cc2)cc1", "inhibition", "%", 91.5]
]}
